Biological target: T1, recombinant hIL-6R protein, monomeric form (human, UniProt P08887 20-358)
T1 construct: also called monomeric hIL-6R; Human IL6R
T1 sequence: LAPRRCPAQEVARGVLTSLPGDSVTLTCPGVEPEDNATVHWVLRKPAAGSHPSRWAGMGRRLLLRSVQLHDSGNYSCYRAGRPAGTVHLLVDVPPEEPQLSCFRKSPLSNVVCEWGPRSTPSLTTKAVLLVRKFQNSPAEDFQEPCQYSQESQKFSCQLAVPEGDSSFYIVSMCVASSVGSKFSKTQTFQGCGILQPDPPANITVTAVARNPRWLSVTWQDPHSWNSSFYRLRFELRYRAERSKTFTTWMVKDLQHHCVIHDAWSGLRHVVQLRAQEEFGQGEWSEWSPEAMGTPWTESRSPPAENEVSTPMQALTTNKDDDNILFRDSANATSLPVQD
Assay: SPR (BIAcore), antibody captured on goat anti-human Fc, monomeric hIL-6R 1.56-12.5 nM
Reported Kd values are given for each entry in this list.
measure: Kd (nM)

INSERT INTO assay_data (binder, measure, readout_number) VALUES
  ('VQ8A9-6 hIgG4 (antibody, V domains shown, Human IgG4 constant region) VH: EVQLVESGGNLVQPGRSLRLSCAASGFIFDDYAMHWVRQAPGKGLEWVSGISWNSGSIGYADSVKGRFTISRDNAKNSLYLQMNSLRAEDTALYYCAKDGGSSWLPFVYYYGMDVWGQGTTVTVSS VL: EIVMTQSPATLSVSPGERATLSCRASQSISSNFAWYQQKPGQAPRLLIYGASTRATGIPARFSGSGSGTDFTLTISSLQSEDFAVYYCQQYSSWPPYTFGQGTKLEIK', 'Kd', 0.201),
  ('VQ8F11-21 hIgG4 (antibody, V domains shown, Human IgG4 (wild-type) constant region) VH: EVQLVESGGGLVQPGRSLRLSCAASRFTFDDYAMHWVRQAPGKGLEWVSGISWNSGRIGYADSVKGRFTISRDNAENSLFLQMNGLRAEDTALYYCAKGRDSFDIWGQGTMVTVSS VL: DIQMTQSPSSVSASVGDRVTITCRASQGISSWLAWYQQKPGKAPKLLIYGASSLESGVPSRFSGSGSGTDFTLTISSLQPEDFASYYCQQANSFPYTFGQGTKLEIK', 'Kd', 0.073);

Hey, just so you know, these numbers are from patent US20070280945A1.
